Where do these numbers come from? They come from ChEMBL document CHEMBL4673391.

Target: Melanocyte-stimulating hormone receptor (Mus musculus, UniProt Q01727)
Sequence (Q01727 whole entry): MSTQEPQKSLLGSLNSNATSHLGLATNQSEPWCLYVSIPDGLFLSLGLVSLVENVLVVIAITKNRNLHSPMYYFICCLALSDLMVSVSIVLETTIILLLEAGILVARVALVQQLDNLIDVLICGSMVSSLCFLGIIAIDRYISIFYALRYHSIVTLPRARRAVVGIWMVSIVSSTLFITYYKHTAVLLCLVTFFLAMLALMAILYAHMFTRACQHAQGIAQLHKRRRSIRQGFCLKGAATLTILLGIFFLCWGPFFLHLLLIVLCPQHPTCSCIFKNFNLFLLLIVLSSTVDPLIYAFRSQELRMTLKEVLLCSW
Assay: Agonist activity at mouse melanocortin receptor 1 expressed in HEK293 cells assessed as stimulation of cAMP accumulation incubated for 2 hrs by cAMP Alpha-screen assay
Recorded pEC50 by entry
Schema: pEC50 number; meaning minus log10 of the concentration expressed in molar units.

[
  {
    "STRUCTURE SMILES STRING": "CC(=O)N[C@@H](Cc1c[nH]cn1)C(=O)N[C@@H](CCC(N)=O)C(=O)N[C@H](Cc1ccc(-c2ccccc2)cc1)C(=O)N1Cc2ccccc2C[C@@H]1C(N)=O",
    "pEC50": 6.91
  },
  {
    "STRUCTURE SMILES STRING": "CC(=O)N[C@@H](CCCNC(=N)N)C(=O)N[C@@H](CCCNC(=N)N)C(=O)N[C@H](Cc1ccc(-c2ccccc2)cc1)C(=O)N1Cc2ccccc2C[C@@H]1C(N)=O",
    "pEC50": 9.22
  }
]

Task: Specify reported pEC50 for the compound shown: CC(=O)N[C@H](C(=O)N[C@@H](CCC(N)=O)C(=O)N[C@H](Cc1ccc(-c2ccccc2)cc1)C(=O)N1Cc2ccccc2C[C@H]1C(N)=O)C(C)C
Result: 7.10

---

Biological target: Melanocortin receptor 4 (Mus musculus)
Sequence (P56450 whole entry): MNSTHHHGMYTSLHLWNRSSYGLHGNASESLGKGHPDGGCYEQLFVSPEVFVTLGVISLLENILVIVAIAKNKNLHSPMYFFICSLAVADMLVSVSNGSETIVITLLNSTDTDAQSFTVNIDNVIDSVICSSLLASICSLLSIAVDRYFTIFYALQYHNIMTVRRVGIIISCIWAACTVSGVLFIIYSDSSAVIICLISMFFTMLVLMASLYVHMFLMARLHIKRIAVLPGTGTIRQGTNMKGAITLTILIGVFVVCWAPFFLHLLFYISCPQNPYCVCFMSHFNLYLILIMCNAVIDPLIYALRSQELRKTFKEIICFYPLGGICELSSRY
Assay: Antagonist activity at mouse melanocortin receptor 4 expressed in HEK293 cells assessed as inhibition of NDP-MSH-induced cAMP accumulation incubated for 2 hrs by cAMP Alpha-screen assay based Schild analysis
Type: functional, cell-based
Settings: read-out: pA2 (converted)
Kb values, listed per item
Kindly answer with a numeric value in nM, unit omitted.

Study these solved cases before continuing.
[
  {
    "STRUCTURE SMILES STRING": "CC(=O)N[C@@H](CCCNC(=N)N)C(=O)N[C@@H](CCCNC(=N)N)C(=O)N[C@H](Cc1ccc(-c2ccccc2)cc1)C(=O)N1Cc2ccccc2C[C@@H]1C(N)=O",
    "UNIT NAME": "nM",
    "Kb": 158
  },
  {
    "STRUCTURE SMILES STRING": "CC(=O)N[C@@H](CCCNC(=N)N)C(=O)N[C@@H](CCC(N)=O)C(=O)N[C@H](Cc1ccc(-c2ccccc2)cc1)C(=O)N1Cc2ccccc2C[C@H]1C(N)=O",
    "UNIT NAME": "nM",
    "Kb": 2000
  }
]

Consider the additional compound presented here.
Task: Return value of Kb for input CC(=O)N[C@@H](Cc1c[nH]cn1)C(=O)N[C@@H](CCCNC(=N)N)C(=O)N[C@H](Cc1ccc(-c2ccccc2)cc1)C(=O)N1Cc2ccccc2C[C@H]1C(N)=O , no commentary.
Result: 316

---

Target: Melanocortin receptor 3 (Mus musculus, UniProt P33033)
Sequence (P33033 whole entry): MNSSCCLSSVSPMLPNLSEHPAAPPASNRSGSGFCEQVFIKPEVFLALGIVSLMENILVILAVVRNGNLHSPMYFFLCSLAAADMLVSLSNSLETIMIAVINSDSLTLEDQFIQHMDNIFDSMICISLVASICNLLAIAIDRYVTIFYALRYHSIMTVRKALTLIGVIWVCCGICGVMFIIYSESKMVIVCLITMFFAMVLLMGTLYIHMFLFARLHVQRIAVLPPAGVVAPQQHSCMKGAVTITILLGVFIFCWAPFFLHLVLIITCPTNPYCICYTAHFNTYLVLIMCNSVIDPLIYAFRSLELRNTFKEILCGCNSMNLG
Test: Agonist activity at mouse melanocortin receptor 3 expressed in HEK293 cells assessed as stimulation of cAMP accumulation incubated for 2 hrs by cAMP Alpha-screen assay
EC50 listing for selected molecules.
Kindly answer with a numeric value in nM, unit omitted.

// known answers, use as guide
[
  {
    "STRUCTURE SMILES STRING": "CC(=O)N[C@H](C(=O)N[C@@H](CCCNC(=N)N)C(=O)N[C@H](Cc1ccc(-c2ccccc2)cc1)C(=O)N1Cc2ccccc2C[C@@H]1C(N)=O)C(C)C",
    "PROPERTY NAME": "EC50",
    "UNIT NAME": "nM",
    "READING": 36
  },
  {
    "STRUCTURE SMILES STRING": "CC(=O)N[C@H](C(=O)N[C@@H](CCC(N)=O)C(=O)N[C@H](Cc1ccc(-c2ccccc2)cc1)C(=O)N1Cc2ccccc2C[C@H]1C(N)=O)C(C)C",
    "PROPERTY NAME": "EC50",
    "UNIT NAME": "nM",
    "READING": 110
  }
]

Okay, next one:
Task: Find the measured EC50 of CC(=O)N[C@@H](CCCNC(=N)N)C(=O)N[C@@H](CCCNC(=N)N)C(=O)N[C@H](Cc1ccc(-c2ccccc2)cc1)C(=O)N1Cc2ccccc2C[C@@H]1C(N)=O and report it.
Result: 14

---

Target: Melanocortin receptor 4 (Mus musculus)
Assay: Agonist activity at mouse melanocortin receptor 4 expressed in HEK293 cells assessed as stimulation of cAMP accumulation at 100 uM incubated for 2 hrs by cAMP Alpha-screen assay relative to control
Assay type: functional, cell-based
Conditions: filed as agonist
PROPERTY NAME: Activity (%)
Reply numerically in %, unit not repeated.

Example results:
[
  {
    "STRUCTURE SMILES STRING": "CC(=O)N[C@@H](CCCNC(=N)N)C(=O)N[C@@H](CCC(N)=O)C(=O)N[C@H](Cc1ccc(-c2ccccc2)cc1)C(=O)N1Cc2ccccc2C[C@H]1C(N)=O",
    "READING": 40
  },
  {
    "STRUCTURE SMILES STRING": "CC(=O)N[C@@H](CCCNC(=N)N)C(=O)N[C@@H](CCCNC(=N)N)C(=O)N[C@H](Cc1ccc(-c2ccccc2)cc1)C(=O)N1Cc2ccccc2C[C@@H]1C(N)=O",
    "READING": 40
  }
]

Okay, next one:
Task: Please indicate Activity recorded for CC(=O)N[C@@H](Cc1c[nH]cn1)C(=O)N[C@@H](CCC(N)=O)C(=O)N[C@H](Cc1ccc(-c2ccccc2)cc1)C(=O)N1Cc2ccccc2C[C@@H]1C(N)=O
Result: 50
